FYI, the data here is from patent US20250270315A1.

- Measured Target: T1, human SIRPγ stably expressed on 293F cells (human, UniProt Q9P1W8 29-387)
- T1 construct: whole, on cells
- T1 sequence (Q9P1W8 29-387): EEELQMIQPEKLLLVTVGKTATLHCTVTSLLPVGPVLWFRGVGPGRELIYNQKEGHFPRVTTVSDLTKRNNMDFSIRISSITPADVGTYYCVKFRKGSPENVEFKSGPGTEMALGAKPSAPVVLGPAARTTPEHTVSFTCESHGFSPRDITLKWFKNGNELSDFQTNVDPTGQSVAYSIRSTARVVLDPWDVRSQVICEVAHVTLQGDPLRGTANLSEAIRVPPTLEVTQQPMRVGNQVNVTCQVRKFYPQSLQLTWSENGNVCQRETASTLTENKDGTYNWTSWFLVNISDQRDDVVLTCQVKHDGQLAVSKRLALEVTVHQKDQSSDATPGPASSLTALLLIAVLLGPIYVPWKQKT
- Protocol Summary: FACS, 293F-hSIRPγ cells
Provide the reported TOP MFI of each item.
# value in MFI; strip the unit string

Ask: Which TOP MFI value is on record for hu025.059 (antibody, V domains shown, Humanized 025; also called hu025.59) VH: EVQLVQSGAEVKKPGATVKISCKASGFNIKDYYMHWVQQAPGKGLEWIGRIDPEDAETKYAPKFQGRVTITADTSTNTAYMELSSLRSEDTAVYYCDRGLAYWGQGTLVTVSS VL: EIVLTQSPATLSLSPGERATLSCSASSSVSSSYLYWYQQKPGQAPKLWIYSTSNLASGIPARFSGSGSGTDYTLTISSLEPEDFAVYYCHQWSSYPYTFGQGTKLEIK ?
Reply: 22700

Ask: Which TOP MFI value is on record for hu025.033 (antibody, V domains shown, Humanized 025) VH: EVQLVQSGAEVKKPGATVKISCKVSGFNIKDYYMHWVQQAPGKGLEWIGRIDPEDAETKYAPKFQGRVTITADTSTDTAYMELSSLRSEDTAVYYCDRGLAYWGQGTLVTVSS VL: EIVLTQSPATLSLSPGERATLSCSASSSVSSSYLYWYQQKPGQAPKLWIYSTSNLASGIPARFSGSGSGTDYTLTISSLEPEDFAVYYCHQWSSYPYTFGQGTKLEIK ?
Reply: 20900

Ask: Which TOP MFI value is on record for hu025.021 (antibody, V domains shown, Humanized 025; also called hu025.21) VH: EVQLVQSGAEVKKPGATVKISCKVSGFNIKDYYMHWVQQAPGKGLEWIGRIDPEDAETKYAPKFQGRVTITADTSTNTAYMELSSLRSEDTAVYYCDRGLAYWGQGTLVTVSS VL: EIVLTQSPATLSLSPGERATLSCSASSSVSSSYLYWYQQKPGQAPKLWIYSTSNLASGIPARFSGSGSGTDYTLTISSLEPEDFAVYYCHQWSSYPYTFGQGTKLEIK ?
Reply: 22100
